Test target: E. coli MurD (Escherichia coli, UniProt P14900)
Sequence (P14900 whole entry): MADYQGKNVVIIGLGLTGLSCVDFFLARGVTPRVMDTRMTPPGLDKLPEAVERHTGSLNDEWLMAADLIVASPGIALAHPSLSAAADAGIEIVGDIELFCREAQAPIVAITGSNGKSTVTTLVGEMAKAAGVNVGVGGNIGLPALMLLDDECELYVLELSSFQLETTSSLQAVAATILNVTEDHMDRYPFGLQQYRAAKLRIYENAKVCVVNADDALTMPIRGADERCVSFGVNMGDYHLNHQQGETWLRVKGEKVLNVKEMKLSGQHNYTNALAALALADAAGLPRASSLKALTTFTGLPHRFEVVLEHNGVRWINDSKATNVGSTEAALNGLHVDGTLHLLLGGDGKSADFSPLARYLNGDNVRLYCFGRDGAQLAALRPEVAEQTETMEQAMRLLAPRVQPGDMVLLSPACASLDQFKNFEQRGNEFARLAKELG
Assay comment: biochemical
Condition: 0.25 h, Table S1, PKIS screening; read-out: RA [%] at 100 µM MurD
Could you mark each record Condition met if its remaining activity at 100 µM falls strictly under 80%, and Condition not met if it equals or exceeds it?

Below are worked cases with known answers.
{"Compound": "COc1cc2ncnc(Nc3ccc(C)c(O)c3)c2cc1OC [GW410563A]", "Test target": "E. coli MurD (Escherichia coli, UniProt P14900)", "Assigned category": "Condition not met"}
{"Compound": "C#Cc1cccc(Nc2ncnc3ccc(OCCCCNCCS(C)(=O)=O)cc23)c1 [GW680191X]", "Test target": "E. coli MurD (Escherichia coli, UniProt P14900)", "Assigned category": "Condition not met"}
{"Compound": "COc1ccc(C2=C(N3CCc4ccccc43)C(=O)NC2=O)cc1 [SB-361058]", "Test target": "E. coli MurD (Escherichia coli, UniProt P14900)", "Assigned category": "Condition not met"}
{"Compound": "CNC(=O)c1cc(-c2ccc(F)cc2)cc(-c2ccc(S(=O)(=O)N3CCCC3)cc2)c1N [GSK635416A]", "Test target": "E. coli MurD (Escherichia coli, UniProt P14900)", "Assigned category": "Condition met"}
{"Compound": "NS(=O)(=O)c1ccc(N/N=C2\\C(=O)Nc3ccc(Cl)cc32)cc1 [GW280670X]", "Test target": "E. coli MurD (Escherichia coli, UniProt P14900)", "Assigned category": "Condition not met"}
{"Compound": "N#Cc1cccc(Nc2nccc(-c3cnn4ncccc34)n2)c1 [GW778894X]", "Test target": "E. coli MurD (Escherichia coli, UniProt P14900)", "Assigned category": "Condition met"}
{"Compound": "COc1ccc2ncnc(Nc3ccc(OCc4ccccc4)cc3)c2c1 [GI261520A]", "Test target": "E. coli MurD (Escherichia coli, UniProt P14900)", "Assigned category": "Condition met"}
{"Compound": "COc1ccc(-c2nn3ncccc3c2-c2ccnc(Nc3ccc4c(c3)OCCO4)n2)cc1 [GW827106X]", "Test target": "E. coli MurD (Escherichia coli, UniProt P14900)", "Assigned category": "Condition met"}

(Q) Please determine if CNC(=O)c1cncc(/C=C/c2c(C)cccc2C)c1 [GW445012X] is below 80% in terms of remaining activity at 100 µM.
(A) Condition not met
